experimental.system: panel of more than 300 wild-type and mutant kinases (313 kinase panel) (Homo sapiens, UniProt Q9HCP0)
assay.text: Kinase profiling in a biochemical assay panel (mobility shift assays and ELISA), %-inhibition at 1 μM; selectivity entropy
protocol.conditions: kinase CK1γ1; 1 μM compound
Reported %-inhibition, CK1γ1 values for the following molecules.
// units = %; emit number, no label

Record excerpt, results attached:
CO[C@H]1C[C@@H]2CC[C@@H](C)[C@@](O)(O2)C(=O)C(=O)N2CCCC[C@H]2C(=O)O[C@H]([C@H](C)C[C@@H]2CC[C@@H](OC(=O)C(C)(CO)CO)[C@H](OC)C2)CC(=O)[C@H](C)/C=C(\C)[C@@H](O)[C@@H](OC)C(=O)[C@H](C)C[C@H](C)/C=C/C=C/C=C/1C [temsirolimus]; -4.47
Cc1ccc(C(=O)Nc2ccc(CN3CCN(C)CC3)c(C(F)(F)F)c2)cc1C#Cc1cnc2cccnn12 [ponatinib]; -4
CNC(=O)c1cc(Oc2ccc(NC(=O)Nc3ccc(Cl)c(C(F)(F)F)c3)c(F)c2)ccn1 [regorafenib]; -8
Cc1ccc(Nc2nccc(N(C)c3ccc4c(C)n(C)nc4c3)n2)cc1S(N)(=O)=O [pazopanib]; -3
CS(=O)(=O)CCNCc1ccc(-c2ccc3ncnc(Nc4ccc(OCc5cccc(F)c5)c(Cl)c4)c3c2)o1 [lapatinib]; -8.54
N#CC[C@H](C1CCCC1)n1cc(-c2ncnc3[nH]ccc23)cn1 [ruxolitinib]; -4

Ask | Recorded %-inhibition, CK1γ1 for COc1cc(Nc2c(C#N)cnc3cc(OCCCN4CCN(C)CC4)c(OC)cc23)c(Cl)cc1Cl [bosutinib] , please?
Reply | 14

Ask | Would you mind telling me what %-inhibition, CK1γ1 value was observed for O=S(=O)(c1cccc2cnccc12)N1CCCNCC1 [fasudil] ?
Reply | -3

---

experimental.system: panel of more than 300 wild-type and mutant kinases (313 kinase panel) (Homo sapiens, UniProt P29597)
Sequence (P29597 whole entry, change not shown): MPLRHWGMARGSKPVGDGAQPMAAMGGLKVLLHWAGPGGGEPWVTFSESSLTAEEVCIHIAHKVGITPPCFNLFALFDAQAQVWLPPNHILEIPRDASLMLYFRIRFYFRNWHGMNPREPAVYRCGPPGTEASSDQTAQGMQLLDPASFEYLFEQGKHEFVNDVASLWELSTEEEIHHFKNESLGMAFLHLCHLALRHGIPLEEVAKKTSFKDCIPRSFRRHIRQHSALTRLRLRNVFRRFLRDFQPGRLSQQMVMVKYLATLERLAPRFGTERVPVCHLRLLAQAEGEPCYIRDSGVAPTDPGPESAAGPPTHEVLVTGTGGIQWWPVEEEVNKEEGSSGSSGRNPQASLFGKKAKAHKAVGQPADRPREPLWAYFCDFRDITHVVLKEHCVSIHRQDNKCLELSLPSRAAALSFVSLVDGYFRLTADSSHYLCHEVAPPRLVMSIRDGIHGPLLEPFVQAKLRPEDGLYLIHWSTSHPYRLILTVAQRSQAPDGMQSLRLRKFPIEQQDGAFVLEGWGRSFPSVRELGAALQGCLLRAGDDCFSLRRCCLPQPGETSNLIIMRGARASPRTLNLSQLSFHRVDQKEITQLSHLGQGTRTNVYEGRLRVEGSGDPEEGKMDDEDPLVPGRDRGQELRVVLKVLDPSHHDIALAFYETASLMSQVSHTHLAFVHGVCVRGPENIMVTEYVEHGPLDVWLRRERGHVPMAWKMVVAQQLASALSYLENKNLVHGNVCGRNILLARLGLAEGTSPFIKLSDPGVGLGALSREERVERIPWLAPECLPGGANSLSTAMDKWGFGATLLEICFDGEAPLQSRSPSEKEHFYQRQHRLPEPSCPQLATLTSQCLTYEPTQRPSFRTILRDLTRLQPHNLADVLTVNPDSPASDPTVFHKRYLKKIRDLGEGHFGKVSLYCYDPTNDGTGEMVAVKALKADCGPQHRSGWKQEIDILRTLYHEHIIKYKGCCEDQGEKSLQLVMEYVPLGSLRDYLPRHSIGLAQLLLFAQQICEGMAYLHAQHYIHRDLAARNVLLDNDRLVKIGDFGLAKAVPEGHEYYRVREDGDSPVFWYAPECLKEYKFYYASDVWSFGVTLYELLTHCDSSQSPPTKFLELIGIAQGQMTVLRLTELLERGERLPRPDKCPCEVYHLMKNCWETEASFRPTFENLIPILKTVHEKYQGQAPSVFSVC
assay.text: Kinase profiling in a biochemical assay panel (mobility shift assays and ELISA), %-inhibition at 1 μM; selectivity entropy
protocol.conditions: kinase TYK2; compound at 1 μM
measured.endpoint: %-inhibition of TYK2 (%)
Write down the numeric answer in % and omit the unit.

CCCS(=O)(=O)Nc1ccc(F)c(C(=O)c2c[nH]c3ncc(-c4ccc(Cl)cc4)cc23)c1F; 6
COc1cc2c(Nc3ccc(Br)cc3F)ncnc2cc1OCC1CCN(C)CC1; -7
Cc1ccc(Nc2nccc(N(C)c3ccc4c(C)n(C)nc4c3)n2)cc1S(N)(=O)=O; 5.31
CC(=O)Nc1cccc(-n2c(=O)n(C3CC3)c(=O)c3c(Nc4ccc(I)cc4F)n(C)c(=O)c(C)c32)c1; 2.16
Cc1ccc(C(=O)Nc2ccc(CN3CCN(C)CC3)c(C(F)(F)F)c2)cc1C#Cc1cnc2cccnn12; 66

Ask | Find the recorded %-inhibition of TYK2 belonging to "CO[C@H]1C[C@@H]2CC[C@@H](C)[C@@](O)(O2)C(=O)C(=O)N2CCCC[C@H]2C(=O)O[C@H]([C@H](C)C[C@@H]2CC[C@@H](OCCO)[C@H](OC)C2)CC(=O)[C@H](C)/C=C(\C)[C@@H](O)[C@@H](OC)C(=O)[C@H](C)C[C@H](C)/C=C/C=C/C=C/1C" and report it.
Reply | -7

Ask | Please report the recorded %-inhibition of TYK2 for "C[C@@H](Oc1cc(-c2cnn(C3CCNCC3)c2)cnc1N)c1c(Cl)ccc(F)c1Cl" .
Reply | 21
